Assay system: Carbonic anhydrase 2 (Homo sapiens)
Experiment description: Binding affinity to human recombinant carbonic anhydrase 2 by thermal shift assay
Measured pKd, listed per entry for reference.
Recall that pKd is obtained by taking minus log10 of the concentration measured in molar.

{"Smiles": "CSc1nc(Cl)c(C=O)c(NCc2ccc(S(N)(=O)=O)cc2)n1", "pKd": 7.62}
{"Smiles": "NS(=O)(=O)c1ccc(Nc2ncnc(Cl)c2[N+](=O)[O-])cc1", "pKd": 7.05}
{"Smiles": "NS(=O)(=O)c1ccc(CNc2ncnc(NCc3ccccc3)c2[N+](=O)[O-])cc1", "pKd": 7.00}

Moving on to another molecule below.
Carbonic anhydrase 2 (Homo sapiens) data for COc1ncnc(NCCc2ccc(S(N)(=O)=O)cc2)c1[N+](=O)[O-] ; its pKd: 7.15
